Experimental system: T1, RSV prefusion F (preF), subtype B (respiratory syncytial virus subtype B)
T1 construct: also called Prefusion subtype B
Procedure details: BLI, IgG
Measured property: Kd

>>> data_value("ADI-19480 (antibody, V domains shown, full-length IgG) VH: EVQLVESGGGLVKPGGSLRLSCAASGFTFSAYSMNWVRQAPGKGLEWVSSISSTTNYISYADSVKGRFTISRDNAKNSLYLQMNSLRAEDTAVYYCARDPKYYGLGTYYKDDYWGQGTLVTVSS VL: NFMLTQPHSVSESPGKTVTISCTRSGGSIASNYVQWYQQRPGSSPTTVIYEDNQRPSGVPDRFSGSIDSSFNSASLTVSGLKTEDEADYYCQSFDNNNRWVFGGGTKLTVL")
"0.383 nM"
>>> data_value("ADI-14333 (antibody, V domains shown, full-length IgG; also called Ab 1) VH: EVQLVETGGGLVKPGGSLRLSCADSGFPFSSYSMHWVRQAPGKGLEWVASISSSSSFINYADSVKGRFTISRDNAKNSLYLQMNSLRAEDTAVYFCAREAACGGDCYGYYFDYWGQGTLVTVSS VL: QSVVTQPPSASGAPGQRVTISCTGSSSNIGAGYDVHWYQQLPGTAPKVLISGNSNRPSGVPARFSGSKSGTSASLAITGLQAEDEADYYCQSYDSSLSGSVFGGGTQLTVL")
"0.904 nM"
